# remaining activity at 30 µM per record follows
- target_or_system: UniProt P09917
- Sequence (P09917 whole entry): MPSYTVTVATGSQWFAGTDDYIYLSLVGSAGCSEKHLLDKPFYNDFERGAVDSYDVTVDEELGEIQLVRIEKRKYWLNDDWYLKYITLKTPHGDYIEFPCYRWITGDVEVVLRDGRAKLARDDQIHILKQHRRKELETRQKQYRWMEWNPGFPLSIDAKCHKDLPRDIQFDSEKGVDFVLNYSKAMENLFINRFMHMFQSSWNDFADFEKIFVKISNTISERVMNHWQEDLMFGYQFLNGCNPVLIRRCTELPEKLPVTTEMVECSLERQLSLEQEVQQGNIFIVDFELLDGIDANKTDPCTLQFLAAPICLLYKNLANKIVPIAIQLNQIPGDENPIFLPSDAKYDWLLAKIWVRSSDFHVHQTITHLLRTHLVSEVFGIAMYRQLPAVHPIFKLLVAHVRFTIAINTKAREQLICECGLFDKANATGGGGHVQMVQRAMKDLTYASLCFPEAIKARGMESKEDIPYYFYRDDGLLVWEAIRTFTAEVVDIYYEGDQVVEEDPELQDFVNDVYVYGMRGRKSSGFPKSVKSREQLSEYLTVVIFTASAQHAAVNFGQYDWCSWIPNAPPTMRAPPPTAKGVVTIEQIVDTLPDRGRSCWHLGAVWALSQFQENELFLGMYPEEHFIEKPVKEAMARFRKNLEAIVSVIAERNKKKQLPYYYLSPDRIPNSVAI
- protocol_text: Purified / human recombinant 5-LO activity (cell-free)
- Type: biochemical
- test_parameters: remaining 5-LO activity (percentage of uninhibited control) at 30 µM test compound
readout_label: remaining activity at 30 µM

molecule_smiles=Cc1cc(OCc2ccccc2Cl)ccc1-c1onc(C(=O)O)c1-c1ccc(Cl)cc1 readout_value=51%
molecule_smiles=Cc1cc(OCc2ccc3ccccc3n2)ccc1-c1onc(C(=O)O)c1-c1ccc(Cl)cc1 readout_value=75%
molecule_smiles=Cc1cc(OCc2ccccn2)ccc1-c1onc(C(=O)O)c1-c1ccc(Cl)cc1 readout_value=73%
molecule_smiles=Cc1cc(OCc2ccccc2C(F)(F)F)ccc1-c1onc(C(=O)O)c1-c1ccc(Cl)cc1 readout_value=62%
molecule_smiles=Cc1ccc(COc2ccc(-c3onc(C(=O)O)c3-c3ccc(Cl)cc3)c(C)c2)cc1 readout_value=53%

====

- target_or_system: microsomal prostaglandin E synthase-1 (mPGES-1) (Homo sapiens)
- Sequence (O14684 whole entry, species assumed): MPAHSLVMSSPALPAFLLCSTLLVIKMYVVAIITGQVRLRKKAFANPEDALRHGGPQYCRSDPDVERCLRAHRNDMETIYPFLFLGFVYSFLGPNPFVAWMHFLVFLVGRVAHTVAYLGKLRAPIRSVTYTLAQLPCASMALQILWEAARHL
pIC50: −log10 of the molar value.
readout_label: pIC50

molecule_smiles=O=C(O)c1noc(-c2ccc(OCc3ccc4ccccc4n3)cc2)c1-c1ccc(Cl)cc1 readout_label=pIC50 readout_value=5.30
